FYI, the data here is from PubChem BioAssay.

Target: Dickkopf-related protein 1 (Homo sapiens) (UniProt O94907)
Sequence (O94907 whole entry, looked up): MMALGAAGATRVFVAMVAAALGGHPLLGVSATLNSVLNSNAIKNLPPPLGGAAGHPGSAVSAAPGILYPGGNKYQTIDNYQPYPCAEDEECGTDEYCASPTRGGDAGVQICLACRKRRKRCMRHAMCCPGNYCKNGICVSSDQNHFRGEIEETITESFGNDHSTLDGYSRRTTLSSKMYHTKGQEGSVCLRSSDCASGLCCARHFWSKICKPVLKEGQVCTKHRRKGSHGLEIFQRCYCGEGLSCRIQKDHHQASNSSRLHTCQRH
Test: small molecules binding DKK1 protein – biochemical, small-molecule microarray, 635 nm fluorescence scan, primary screen (AID 1106);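 further: score merges emission near 667 nm with signal to noise over three replicate slides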
Settings: higher = more signal
assay readout: composite z-score
Enter a number only.

Req: Request the reported composite z-score associated with C=CCC(OC(C)=O)[C@@H]1[C@@H](N(Cc2cc3ccccc3o2)C(=O)Cc2ccc(OC)cc2)c2cc(OCCCO)ccc2N1C(=O)c1ccc2ccccc2c1 (some centres not stated)
Resp: -0.306

Req: Also, CCCCN1CC=CC23O[C@@H]4C=CCOC(=O)[C@@H]4[C@H]2C(=O)N(CCCCCCO)[C@@H]3C1=O (some centres not stated) please.
Resp: -1.28

Req: Also, COCCOC(=O)N1C(=O)[C@@]2(c3cc(C#CC4=CCCCC4)ccc31)[C@H](c1ccc(OCCO)cc1)N1[C@H](c3ccccc3)[C@H](c3ccccc3)OC(=O)[C@H]1[C@@H]2C(=O)N1CCc2cc(OC)c(OC)cc2C1 please.
Resp: 1.13

Req: Also, C=CCOC(=O)[C@H]1[C@@H]2C(=O)O[C@@H](c3ccccc3)[C@@H](c3ccccc3)N2[C@@H](c2ccc(OCCOC(=O)[C@@H]3C[C@@H]4C(=O)N5CCC[C@H]5C(=O)N4[C@@H]3c3cccc(OCCO)c3)cc2)[C@]12C(=O)Nc1ccc(I)cc12 please.
Resp: 1.2

Req: Also, CCOc1ccc(N2C(=O)CSC2c2cccc([N+](=O)[O-])c2)cc1 (configuration not stated) please.
Resp: 0.168

Req: Also, CCCCC(=C=CC[C@@H](O)c1cccc(OCCO)c1)C[C@@H](O)c1ccccn1 please.
Resp: 0.168

Req: Also, CO[C@H]1O[C@H](CO)[C@@H](OC(=O)Nc2cccc(F)c2)[C@H](OC(=O)Nc2ccccc2)[C@H]1OC(=O)Nc1ccccc1 please.
Resp: 0.18

---

Tested on: Neuregulin-1 EGF-like domain
Test: small molecules binding NRG1 EGF domain – biochemical, small-molecule microarray, 635 nm fluorescence, primary screen (AID 1081);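 further: binding of the protein to compounds printed on small-molecule microarray slides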
Conditions: higher = more signal
For each entry below, report its composite z-score value.

Req: Request the reported composite z-score associated with CCCNC(=O)[C@@H]1c2ccccc2C(=O)N(Cc2ccccc2OC)[C@H]1c1ccc(CO)cc1
Resp: 0.977

Req: Also, COc1ccc([Si](C)(C)[C@H]2[C@H](CC(=O)N3CCC[C@H]3CO)O[C@@]3(C(=O)N(Cc4cccc(N5CCOC5=O)c4)c4ccccc43)[C@@H]2C)cc1 please.
Resp: 0.876

Req: Also, O=C(O)[C@H](Cc1ccccc1)n1cc(-c2ccccc2)nn1 please.
Resp: 0.871

---

Test: S. pombe growth modifiers, basal conditions – strain 972, OD600, 24 h, no modulator, primary screen (AID 1090);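 further: basal condition with compound alone and no growth modifier present; test concentration not given here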
Conditions: S. pombe 972 growth, higher = more signal, called active from +8 up or from −8 down
So basically: z-score at -3 or higher? That is TRUE. Lower than -3? That is FALSE.

Req: Item CC1CC/C=C\[C@H]2OC34C=CCN(c5ccc6ccccc6c5)C(=O)[C@H]3N(CCO)C(=O)[C@@H]4C2C(=O)O1 (some centres undefined) with z-score of -3 or above?
Resp: TRUE

Req: Also, CCCCCCc1nc(-c2ccc(-c3ccc(Cl)c(Cl)c3)o2)c(C)c2c1[Si](C(C)C)(C(C)C)OC2 please.
Resp: FALSE

Req: Also, C=C(CCCC)C(=O)CC[C@H](OC(=O)c1cccnc1)c1ccc(OCCO)cc1 please.
Resp: FALSE

Req: Also, CCCCC(O)C1C=CC2C(=O)N(C)C(=O)C2N1N1CCCCC1 (centres undefined) please.
Resp: TRUE

Req: Also, C#CCNCc1ccccc1 please.
Resp: TRUE

Req: Also, COCC(=C=CC[C@H](O)c1cccc(OCCO)c1)CCO please.
Resp: TRUE

Req: Also, [N-]=[N+]=Nc1ccccc1C[C@@]1(C(=O)N2CCCCC2)N=C(c2ccc(OCCCO)cc2)O[C@@H]1c1ccccc1 please.
Resp: TRUE

Req: Also, COc1cc2c(cc1O)C(c1cccs1)N(Cc1ccc([N+](=O)[O-])o1)CC2 (centres undefined) please.
Resp: FALSE

Req: Also, COc1ccc([Si](C)(C)[C@H]2[C@H](CCn3cc([C@H](O)c4ccccc4)nn3)O[C@@]3(C(=O)N(C)c4ccccc43)[C@@H]2C)cc1 please.
Resp: TRUE

---

Tested on: Sam68 (KHDRBS1)
Assay: compounds binding KHDRBS1 protein – biochemical, small-molecule microarray, 635 nm fluorescence, primary screen (AID 1125);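 further: score merges 667 nm channel intensity with signal to noise over triplicate slides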
Conditions: higher = more signal
So basically: composite z-score at 0.01 or higher? That is 1. Lower than 0.01? That is 0.

Req: Item CCN(CC)c1ccc(N2CC=CC34O[C@@H]5C=CCOC(=O)[C@@H]5[C@H]3C(=O)N(CCCCCCO)[C@@H]4C2=O)cc1 (stereo partly drawn) with composite z-score of 0.01 or above?
Resp: 1

Req: Also, CC(c1ccccc1)C(O)C1C=CC2C(=O)N(C)C(=O)C2N1NC(=O)OC(C)(C)C (stereo not drawn) please.
Resp: 1

Req: Also, O=C1C2C=CC(C(O)c3cc(C(F)(F)F)cc(C(F)(F)F)c3)N(Nc3ccccc3)C2C(=O)N1c1ccccc1 (stereo not drawn) please.
Resp: 1

Req: Also, C=CCN1Cc2ccccc2[C@@H]2OC(c3ccc(OCCCO)cc3)=N[C@]2(CCS(=O)(=O)c2ccccc2)C1=O please.
Resp: 1

Req: Also, O=C1[C@H]2C=C(Br)[C@H](C[C@@H]2OCCCCCCO)[C@@]12CO2 please.
Resp: 0

Req: Also, C=CCC(OC(C)=O)[C@@H]1[C@@H](N(Cc2ccc(-c3cccc(C(F)(F)F)c3)o2)C(=O)Cc2ccc(OC)cc2)c2cc(OCCCO)ccc2N1C(=O)c1ccc2ccccc2c1 (stereo partly drawn) please.
Resp: 0

Req: Also, O=C1[C@@]23C=C(Br)[C@H](C[C@@H]2COC3)[C@]12CO2 please.
Resp: 0

Req: Also, C[N+](C)(C)CCCC[C@@H]1NC(=O)[C@@H]2C[C@H](C(=O)NCCCCCN)[C@H](c3ccc(O)cc3)N2C1=O please.
Resp: 1

---

Biological target: Streptavidin (Streptomyces avidinii) (UniProt P22629)
Sequence (P22629 whole entry, looked up): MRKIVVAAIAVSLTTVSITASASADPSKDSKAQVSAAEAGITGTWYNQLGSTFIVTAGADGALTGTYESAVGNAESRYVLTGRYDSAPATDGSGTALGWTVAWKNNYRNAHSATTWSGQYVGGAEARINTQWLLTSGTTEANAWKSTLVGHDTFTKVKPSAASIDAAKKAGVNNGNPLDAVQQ
Assay: compounds binding control protein streptavidin – biophysical, small-molecule microarray, 635/667 nm fluorescence, artefact control for SMM compound annotation, primary screen (AID 1147);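 further: signal reflects streptavidin binding to arrayed compounds as a control protein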
Details: higher = more signal
assay readout: composite z-score
Enter a number only.

Req: Request the reported composite z-score associated with C=CCOC(=O)[C@H]1[C@@H]2C(=O)O[C@@H](c3ccccc3)[C@@H](c3ccccc3)N2[C@@H](c2ccc(OCCOC(=O)[C@@H]3C[C@@H]4C(=O)N5CCC[C@H]5C(=O)N4[C@@H]3c3cccc(OCCO)c3)cc2)[C@]12C(=O)Nc1ccc(I)cc12
Resp: 0.763

Req: Also, CC1CC/C=C\[C@H]2OC34C=CCN(Cc5ccccc5)C(=O)[C@H]3N(C(C)CO)C(=O)[C@@H]4C2C(=O)O1 (some centres undefined) please.
Resp: -0.556

Req: Also, C#CCN1[C@H](/C=C/C2CC2)[C@H](Cc2ccccc2)OC(=O)[C@@H]1Cc1ccccc1 please.
Resp: -0.929

Req: Also, C=CCNC(=O)[C@@H]1[C@H]2C(=O)O[C@H](c3ccccc3)[C@H](c3ccccc3)N2[C@H](c2ccc(OCCO)cc2)[C@@]12C(=O)N(C(=O)OCCOC)c1ccc(C#CCNC(N)=O)cc12 please.
Resp: 0.348

---

Experiment: compound effects on lung adenocarcinoma cell viability – A549, calcein-AM fluorescence, 48 h, basal, profiling panel (AID 1162); further: test concentration not given here
Conditions: higher = more signal
assay readout: z-score
Enter a number only.

Req: Request the reported z-score associated with CC[C@@H]1C=C(C(=O)O)[C@H](c2cccc3ccccc23)N1S(=O)(=O)c1ccc(C)cc1
Resp: -1.17

Req: Also, CCCC=C(CCC)[C@@H](NS(=O)(=O)c1ccc(Cl)cc1)c1ccc(C(=O)OC)cc1 please.
Resp: -1.18

Req: Also, OCC1C=C(/C=C/c2ccccc2)CN1Cc1ccccc1Br (centres undefined) please.
Resp: -0.58

Req: Also, COCCOC(=O)N1C(=O)[C@@]2(c3cc(C#CC4(O)CCCCCC4)ccc31)[C@H](c1ccccc1OCCO)N1[C@H](c3ccccc3)[C@H](c3ccccc3)OC(=O)[C@H]1[C@@H]2C(=O)N1CCc2cc(OC)c(OC)cc2C1 please.
Resp: -0.329

---

Test: growth effects on S. cerevisiae YJM789 – YJM789 clinical isolate, OD600, 24 h, basal, primary screen (AID 1089);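 further: growth of clinical yeast isolate S. cerevisiae YJM 789 seeded 1000 cells per well; test concentration not given here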
Conditions: higher = more signal, called active from +8 up or from −8 down
The source made the active and inactive calls.
For each entry below, report its z-score value.

Req: Request the reported z-score associated with C=CCN1C(=O)[C@]2(O[C@H](CCO)[C@@H]([Si](C)(C)c3ccc(OC)cc3)[C@@H]2C)c2cc(N(C=O)c3ccccc3)ccc21
Resp: 1.28 (inactive)

Req: Also, O=C1O[C@@H](c2ccccc2)[C@@H](c2ccccc2)N2[C@@H](c3ccc(OCCO)cc3)[C@]3(C(=O)Nc4ccc(C#CC5=CCCCC5)cc43)[C@@H](C(=O)N3CCCCCCC3)[C@H]12 please.
Resp: 1.1 (inactive)

Req: Also, O=C1OCC=C[C@H]2OC34C=CCN(Cn5nnc6ccccc65)C(=O)[C@H]3N(CCCCCO)C(=O)[C@@H]4[C@@H]12 (stereo not given in full) please.
Resp: -0.314 (inactive)

Req: Also, O=C1[C@H]2C=C(Br)[C@H](C[C@@H]2OCCCCCCO)[C@@]12CO2 please.
Resp: 0.335 (inactive)

Req: Also, Cc1ccc(S[C@]2(C(=O)O)CC(=O)N(C(C)C)[C@@H]2c2ccc(CO)cc2)cc1 please.
Resp: -1.54 (inactive)

Req: Also, COCCOC(=O)N1C(=O)[C@@]2(c3cc(C#CC4(O)CCCCCC4)ccc31)[C@H](c1ccccc1OCCO)N1[C@H](c3ccccc3)[C@H](c3ccccc3)OC(=O)[C@H]1[C@@H]2C(=O)N1CCc2cc(OC)c(OC)cc2C1 please.
Resp: 2.46 (inactive)

Req: Also, O=C1[C@@]23C=C(Br)[C@H](C[C@@H]2COC3)[C@]12CO2 please.
Resp: -0.241 (inactive)

Req: Also, C=C(CCCC)/C(=C/C[C@H](OC(=O)c1ccncc1)c1ccc(OCCO)cc1)c1cc(C(=O)OC)ccc1OC please.
Resp: 0.992 (inactive)

Req: Also, C[N+](C)(C)CCCC[C@@H]1NC(=O)[C@@H]2C[C@H](C(=O)NCCCCCCNC(=O)CS)[C@H](c3ccc(O)cc3)N2C1=O please.
Resp: 0.562 (inactive)

Req: Also, CC(C)NC(=O)[C@@H]1c2ccccc2C(=O)N(C(C)C)[C@H]1c1ccc(CO)cc1 please.
Resp: 0.549 (inactive)

Req: Also, CC(C)NC(=O)[C@@]1(Cc2ccccc2I)c2ccccc2C(=O)N(Cc2ccccc2Cl)[C@H]1c1ccc(CO)cc1 please.
Resp: 1.14 (inactive)

Req: Also, [N-]=[N+]=Nc1ccccc1C[C@@]1(C(=O)N2CCCCC2)N=C(c2ccc(OCCCO)cc2)O[C@@H]1c1ccccc1 please.
Resp: -1.96 (inactive)

Req: Also, O=C(CS)NCCCCCNC(=O)[C@@H]1C[C@@H]2C(=O)NCC(=O)N2[C@@H]1c1ccc(O)cc1 please.
Resp: 0.118 (inactive)

Req: Also, [N-]=[N+]=NCc1ccccc1[C@@H]1OC(c2ccc(OCCCO)cc2)=N[C@]1(CCS(=O)(=O)c1ccccc1)C(N)=O please.
Resp: 1.16 (inactive)

Req: Also, C=CCN1C(=O)[C@]2(Cc3ccccc3)N=C(c3ccc(OCCCO)cc3)O[C@@H]2c2ccccc21 please.
Resp: 0.331 (inactive)
